Species: Rattus norvegicus
Assay: Open TG-GATES - Regimen: Daily Repeat
Format: toxicity, organism-based, Sprague-Dawley
Parameters: regimen Daily Repeat, gender Male, age 6 weeks
Settings: in vivo, po, 0 mg/kg, […], tissue Blood, route gavage, dose level Control, time 14 day
QUANTITY: Eos (%)
Number in %, nothing else.

Value lookup for Eos; key = Cn1c(=O)c2c(ncn2C)n(C)c1=O
1

====

Species: Rattus norvegicus
Experiment: Open TG-GATES - Regimen: Daily Repeat
Type: toxicity, organism-based, Sprague-Dawley
Parameters: regimen Daily Repeat, gender Male, age 6 weeks
Details: in vivo, po, 0 mg/kg, […], tissue Plasma, route gavage, dose level Control, time 7 day
Measured A/G of individual entries
The response must contain the number and no unit.

Here's what some known entries look like.
INSERT INTO assay_data (compound, quantity, number) VALUES
  ('C=CCO', 'A/G', 1.5),
  ('Cn1cnc([N+](=O)[O-])c1Sc1ncnc2nc[nH]c12', 'A/G', 1.2),
  ('COc1ccc(Cl)cc1C(=O)NCCc1ccc(S(=O)(=O)NC(=O)NC2CCCCC2)cc1 [GLYBURIDE]', 'A/G', 1.5);

Please turn your attention to the following entry.
Sample COc1ccc(O)c(C(C)(C)C)c1.COc1ccc(O)cc1C(C)(C)C [BUTYLATED HYDROXYANISOLE] — what was its A/G?
0.8
